Hey, just so you know, these numbers are from ChEMBL document CHEMBL1140948.

Documented logP across a set of compounds
- assay.info: Partition coefficient, log P of the compound
- Assay type: physicochemical
- measurement.setup: octanol/water; read-out: logP
No unit in the answer, please; the number alone is enough.

C[C@H]1[C@@H](CC(C[C@H]2O[C@@H]3C[C@]4(C)CC[C@H]5[C@H](C)CC[C@@H]([C@H]2C)[C@@]35OO4)CS(=O)(=O)Cc2ccc(F)cc2)O[C@@H]2C[C@]3(C)CC[C@H]4[C@H](C)CC[C@@H]1[C@@]24OO3
7.8

With those in mind, consider the next compound.
The recorded logP for `C[C@H]1[C@@H](CC(C[C@H]2O[C@@H]3C[C@]4(C)CC[C@H]5[C@H](C)CC[C@@H]([C@H]2C)[C@@]35OO4)CS(=O)(=O)c2ccc(CO)cc2)O[C@@H]2C[C@]3(C)CC[C@H]4[C@H](C)CC[C@@H]1[C@@]24OO3` is 7
